Tested on: SF-268 CNS
Assay: NCI-60 one-dose screen, 48 h (100 = growth as untreated, 0 = no growth, -100 = all killed)
Details: 10 µM unless noted
The panel holds about 83,000 compounds, 20% with a hit somewhere; the sample as a whole holds those more often.
observation-type: growth (%)

compound	observation-type	measured-result
O=C1[C@H]2Cc3c([nH]c4ccccc34)[C@@H](c3ccc(Cl)cc3)N2C(=O)CN1C1CCN(Cc2ccccc2)CC1	growth	50
CNC1CCc2c(sc(NC(=O)c3ccc(C(C)(C)C)cc3)c2C(N)=O)C1 (centres undefined)	growth	79
Fc1ccc(-c2cc3nc(C(Cl)Cl)nc(-c4ccco4)n3n2)cc1	growth	3.07
CC(C)(C)c1ccc(CC(=O)Nc2sc3c(c2C(N)=O)CCC(=O)C3)cc1	growth	26
COC[C@]12CCC(C)(C)C[C@H]1C1=CC[C@@H]3[C@@]4(C)CCCNC(C)(C)[C@@H]4CC[C@@]3(C)[C@]1(C)CC2	growth	33.7
COc1cc(/C=C2\C(=O)Nc3ccccc32)ccc1OCc1ccc(F)cc1	growth	105
C#C[C@]1(O)CC[C@H]2[C@@H]3CC=C4c5sc(-c6cccc(O)c6)nc5CC[C@]4(C)[C@H]3CC[C@@]21C	growth	-15.4
CN1CCN(Cc2ccc(NC(=O)c3cncc(C#Cc4cnn5cccnc45)c3)cc2C(F)(F)F)CC1	growth	-5.38
NC(=O)c1cccc(-n2ccc3cc(NC(=O)Nc4ccc(N5CCOCC5)c(C(F)(F)F)c4)ccc32)n1	growth	3.3
O=C(CNc1nc(-c2cccc([N+](=O)[O-])c2)cs1)Nc1cccc(Cl)c1	growth	99.7
CS(=O)(=O)c1ccc(-n2cc(/C=N/O)c(-c3ccccc3)n2)cc1	growth	70.9
Cc1ccc(-n2c(/C=C3\C(=O)Nc4ccccc43)ccc2CO)cc1	growth	89.5
Nc1nc(-c2cccc([N+](=O)[O-])c2)c(N=Nc2cccc([N+](=O)[O-])c2)s1	growth	14.7
Fc1ccc(-c2cc3nc(C(Cl)Cl)nc(-c4ccc(F)cc4)n3n2)cc1	growth	23.2
C=CCn1c(SCC(=O)Nc2ccc(C(=O)/C=C/c3ccc(Cl)cc3)cc2)nnc1-c1c[nH]c2ccccc12	growth	64
Cc1nn(-c2ccccc2)c2ncnc(N/N=C/c3ccccc3O)c12	growth	8.32
Cc1ccc(NC(=O)CNc2cc(C(N)=O)cc(F)c2C)c(Cl)c1	growth	81.7
COC(=O)C(Cc1ccccc1)Nc1nc(NC(Cc2ccccc2)C(=O)OC)nc(N2CCOCC2)n1 (centres undefined)	growth	103
O=C(Nc1ccc2c(ccn2Cc2ccccn2)c1)c1ccnnc1	growth	81.9
Nc1ccccc1NC(=O)c1ccc(NC(=O)C/C=C/c2cccnc2)cc1	growth	35.3
COc1ccc(COc2ccc(/C=C3\C(=O)Nc4ccccc43)cc2OC)cc1	growth	103
CCCCCc1ccc(S(=O)(=O)Nc2cccc(-c3csc(NC(=O)CCCCCN4CCN(C)CC4)n3)c2)cc1	growth	67.5
O=C(CCn1c[n+](CC(=O)c2ccc(F)cc2)c2ccccc21)Nc1cccc2cccnc12	growth	78.6
CC(Nc1c(C#N)cnc2ccc(-c3cnc(N)nc3)cc12)c1ccccc1 (centres undefined)	growth	13.4
CC(=O)C1=C(C)NC(NNC(N)=S)=NC1c1ccccc1 (centres undefined)	growth	84.8
Cc1c(F)cc(C(N)=O)cc1NCC(=O)Nc1ccc([N+](=O)[O-])cc1	growth	81.2
Cc1cc(-c2ccc(Cl)cc2)n(Cc2nnc(SCC(=O)Nc3ccc(S(N)(=O)=O)cc3)n2-c2ccc([N+](=O)[O-])cc2)n1	growth	95.6
c1cc(-c2nc3ccc4[nH]ncc4c3c3c2CCCC3)[nH]n1	growth	71.4
O=C(NNc1nc2cc(F)ccc2n2c(CN3CCC(O)C3)ccc12)c1cnccn1 (centres undefined)	growth	22.6
CCOc1ccc(NC2=C(Cl)C(=O)c3nc(C)ccc3C2=O)cc1	growth	32.3
Cc1ccc(NC(=S)NNC(=S)Nc2ccc(C)cc2)cc1	growth	108
Nc1nc(-c2cccc([N+](=O)[O-])c2)c(N=Nc2ccc(Br)cc2)s1	growth	26.2
CCCn1cnc2c(c1=N)C(c1ccc(Cl)cc1)c1sc3c(CC)cccc3c1O2 (centres undefined)	growth	45.4
COc1ccc(-c2cc(-c3ccc(Cl)cc3)c(C#N)c(=O)n2Cc2ccc(C(=O)O)cc2)cc1	growth	67.8
COc1ccc2[nH]cc(-c3csc4nc(-c5ccccc5)cn34)c2c1	growth	41.1
Cn1ccnc1C(=O)/C=C/c1ccc(NC(=O)c2ccc(F)cc2)cc1	growth	21.8
NC(N)=Nc1ccc(Nc2cccc(Oc3ccc(Cl)c(C(F)(F)F)c3)c2)cn1	growth	53.6
O=C(CSc1nc2ccccc2c(=O)n1-c1ccccc1)Nc1ccc(-c2nc3ccc([N+](=O)[O-])cc3[nH]2)cc1	growth	76.2
COc1ccc(CCN2C(=O)CSC2=S)cc1	growth	100
